Assay: chemical recovery into PDMS from spiked human plasma; higher = better extraction
Details: pooled human plasma; extraction method: PES with PDMS; equilibration time (d): 3
Given measured chemical recovery into PDMS, output Satisfied if it is greater than or equal to 20% and Not satisfied if not.

Cl[C@H]1[C@H](Cl)[C@@H](Cl)[C@H](Cl)[C@H](Cl)[C@H]1Cl [alpha-HCH]    Satisfied
Brc1cc(Br)c(Oc2cc(Br)c(Br)cc2Br)c(Br)c1 [BDE154]    Satisfied
c1ccc2ncccc2c1 [Quinoline]    Not satisfied
ClC1=C(Cl)C2(Cl)C3C4OC4C(Cl)C3C1(Cl)C2(Cl)Cl (stereo not given) [Heptachlorepoxide]    Satisfied
CN1C(=O)CN=C(c2ccccc2)c2cc(Cl)ccc21 [Diazepam]    Satisfied
CCCC1COC(Cn2cncn2)(c2ccc(Cl)cc2Cl)O1 (stereo not given) [Propiconazole]    Satisfied
COC(=O)Nc1nc2cc(C(=O)c3ccccc3)ccc2[nH]1 [Mebendazole]    Satisfied
C=CCOC(Cn1ccnc1)c1ccc(Cl)cc1Cl (stereo not given) [Imazalil]    Satisfied

Please indicate if the recorded chemical recovery into PDMS for CCCOC(=O)c1ccc(O)cc1 [Propylparaben] meets or exceeds 20%.
Not satisfied

Quick check: does CCNc1nc(Cl)nc(NC(C)C)n1 [Atrazine] have chemical recovery into PDMS greater than or equal to 20%?
Satisfied

Please check the record c1ccc2cc3c(cc2c1)-c1cccc2cccc-3c12 [Benzo(k)fluoranthene] and state if its chemical recovery into PDMS is at or above 20%.
Satisfied

Decide: chemical recovery into PDMS of C[C@]12CC[C@H]3[C@@H](CCC4=CC(=O)CC[C@@]43C)[C@@H]1CC[C@@H]2O [Testosterone] >= 20%?
Satisfied

Is the recorded value of chemical recovery into PDMS equal to or greater than 20% for this compound? C[C@]12C=CC(=O)C=C1CC[C@@H]1[C@@H]2C(=O)C[C@@]2(C)[C@H]1CC[C@]2(O)C(=O)CO [Prednisone]
Not satisfied
